biological target: human Gastric Inhibitory Peptide Receptor (GIPR) (human) (UniProt P48546); assay: FACS competition vs biotinylated GIP-057 on CHO-K1-hGIPR cells; category A: pIC50 >8.0
Sequence (P48546 22-466 limits assumed): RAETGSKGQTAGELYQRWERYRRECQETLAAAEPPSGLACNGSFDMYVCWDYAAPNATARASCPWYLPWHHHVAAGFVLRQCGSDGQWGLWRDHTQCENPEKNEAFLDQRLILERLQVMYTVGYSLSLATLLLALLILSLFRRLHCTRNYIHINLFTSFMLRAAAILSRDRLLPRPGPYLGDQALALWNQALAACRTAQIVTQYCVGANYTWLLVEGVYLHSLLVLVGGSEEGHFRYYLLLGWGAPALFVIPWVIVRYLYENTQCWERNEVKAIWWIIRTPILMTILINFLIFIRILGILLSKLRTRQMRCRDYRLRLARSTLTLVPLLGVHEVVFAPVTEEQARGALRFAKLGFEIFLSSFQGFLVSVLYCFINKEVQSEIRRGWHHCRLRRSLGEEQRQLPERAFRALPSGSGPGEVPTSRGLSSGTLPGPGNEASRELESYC
*1 amine or outer side, *2 acyl side, *3 side chain or, on linkers, in order; H or OH if unused. Bridges are numbered along the chain shown (N, C = ends). [ ]: non-standard residue; d: D form. Trp(5-Cl) = N[C@@H](Cc1c[nH]c2ccc(Cl)cc12)C(=O)O; Pyridine(2,6-diCH2) = c1cc(C[*:1])nc(C[*:2])c1; Hyp = O=C(O)[C@@H]1C[C@@H](O)CN1; Cha = N[C@@H](CC1CCCCC1)C(=O)O; Thp = NC1(C(=O)O)CCOCC1
Can you tell me pIC50 for the items I'm about to list?

Example binders with recorded pIC50:
binder="Ac-DW[Trp(5-Cl)][Hyp]E[dL]C[Thp][Cha]IC-NH2 (linker 7-11 via Pyridine(2,6-diCH2)) [Ac-Asp-Trp-5Clw-Hyp-Glu-leu-[Cys(2Lut)-Thp-Cha-Ile-Cys]-NH2]" result_value="> 8 pic50"
binder="Ac-D[Phe(2,3-Cl2)][Trp(5-Cl)][Hyp]E[dL]C[Thp]LIC-NH2 (linker 7-11 via Pyridine(2,6-diCH2)) [Ac-Asp-Egp-5Clw-Hyp-Glu-leu-[Cys(2Lut)-Thp-Leu-Ile-Cys]-NH2]" result_value="> 8 pic50"

Next binder, please.
Q: GET /values?readout=pIC50&item= Ac-DW[Trp(5-Cl)][Hyp]E[dL]C[Thp]SIC-NH2 (linker 7-11 via Pyridine(2,6-diCH2); SMILES CC[C@H](C)[C@@H]1NC(=O)[C@H](CO)NC(=O)C2(CCOCC2)NC(=O)[C@@H](NC(=O)[C@@H](CC(C)C)NC(=O)[C@H](CCC(=O)O)NC(=O)[C@@H]2C[C@@H](O)CN2C(=O)[C@H](Cc2c[nH]c3ccc(Cl)cc23)NC(=O)[C@H](Cc2c[nH]c3ccccc23)NC(=O)[C@H](CC(=O)O)NC(C)=O)CSCc2cccc(n2)CSC[C@@H](C(N)=O)NC1=O) [Ac-Asp-Trp-5Clw-Hyp-Glu-leu-[Cys(2Lut)-Thp-Ser-Ile-Cys]-NH2]
A: > 8 pic50
